Target: TLR7 (Homo sapiens)
Sequence (Q9NYK1 27-1049): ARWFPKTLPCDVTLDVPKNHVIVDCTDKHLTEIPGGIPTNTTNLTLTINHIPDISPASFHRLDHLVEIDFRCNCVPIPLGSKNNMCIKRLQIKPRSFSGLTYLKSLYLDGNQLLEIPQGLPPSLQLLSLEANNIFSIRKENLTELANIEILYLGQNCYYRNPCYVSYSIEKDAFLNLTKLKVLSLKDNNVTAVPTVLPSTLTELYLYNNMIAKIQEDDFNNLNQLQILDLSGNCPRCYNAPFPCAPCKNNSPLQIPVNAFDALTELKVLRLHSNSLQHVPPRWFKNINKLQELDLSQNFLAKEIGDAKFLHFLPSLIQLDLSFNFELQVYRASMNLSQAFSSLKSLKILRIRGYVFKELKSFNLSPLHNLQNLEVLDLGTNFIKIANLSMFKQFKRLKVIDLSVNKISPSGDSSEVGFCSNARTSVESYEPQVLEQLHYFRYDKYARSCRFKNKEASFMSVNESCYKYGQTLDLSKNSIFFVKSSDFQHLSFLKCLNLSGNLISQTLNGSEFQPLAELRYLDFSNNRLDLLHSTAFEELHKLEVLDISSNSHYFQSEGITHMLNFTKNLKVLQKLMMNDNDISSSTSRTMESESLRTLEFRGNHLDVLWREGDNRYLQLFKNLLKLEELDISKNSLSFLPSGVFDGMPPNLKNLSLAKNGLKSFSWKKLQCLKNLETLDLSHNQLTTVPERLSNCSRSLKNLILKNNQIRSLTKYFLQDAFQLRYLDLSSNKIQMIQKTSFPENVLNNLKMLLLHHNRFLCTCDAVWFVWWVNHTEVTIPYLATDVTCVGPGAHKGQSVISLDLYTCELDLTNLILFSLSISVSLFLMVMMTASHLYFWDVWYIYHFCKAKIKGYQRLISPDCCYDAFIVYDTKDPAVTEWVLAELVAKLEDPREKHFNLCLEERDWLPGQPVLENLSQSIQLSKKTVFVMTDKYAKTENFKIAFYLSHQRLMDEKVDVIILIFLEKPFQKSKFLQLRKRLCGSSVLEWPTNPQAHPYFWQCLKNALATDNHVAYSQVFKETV
Assay: Reporter gene assay, HEK-Blue TLR7 reporter cells (SEAP)
pEC50: −log10 of the molar value.
Output Criterion met for pEC50 not less than 7; output Criterion not met otherwise.

- compound structure string: "CCCCc1nc2c(N)nc3ccsc3c2n1Cc1ccccc1CNCc1ccc(CO)cc1"
  assigned category: "Criterion not met"
- compound structure string: "CCCCc1nc2c(N)nc3ccsc3c2n1Cc1ccc(C[n+]2ccccc2)cc1"
  assigned category: "Criterion met"
- compound structure string: "CCCCc1nc2c(N)nc3ccsc3c2n1Cc1ccccc1CN1CCN(C(=O)OC(C)(C)C)CC1"
  assigned category: "Criterion not met"
- compound structure string: "CCCCc1nc2c(N)nc3ccsc3c2n1Cc1cccc(CNN)c1"
  assigned category: "Criterion not met"
- compound structure string: "CCCCc1nc2c(N)nc3ccsc3c2n1Cc1cccc(Cn2ccnc2)c1"
  assigned category: "Criterion not met"
- compound structure string: "CCCCc1nc2c(N)nc3ccsc3c2n1CCCCCNCC(C)(C)N1CCOCC1"
  assigned category: "Criterion met"
- compound structure string: "CCCCc1nc2c(N)nc3ccsc3c2n1Cc1nc(CO)cs1"
  assigned category: "Criterion not met"
- compound structure string: "CCCCc1nc2c(N)nc3ccsc3c2n1Cc1ccc(CN[C@H](C(=O)O)[C@@H](C)CC)cc1"
  assigned category: "Criterion not met"
- compound structure string: "CCCCc1nc2c(N)nc3ccsc3c2n1CCCCCN=[N+]=[N-]"
  assigned category: "Criterion not met"
- compound structure string: "CCCCc1nc2c(N)nc3ccsc3c2n1Cc1ccccc1CNCC(C)(C)O"
  assigned category: "Criterion not met"
- compound structure string: "CCCCc1nc2c(N)nc3ccsc3c2n1Cc1nc(CN2CCN(CCN3CCOCC3)CC2)cs1"
  assigned category: "Criterion not met"
- compound structure string: "CCCCc1nc2c(N)nc3ccsc3c2n1Cc1ccc(CNc2nnc[nH]2)cc1"
  assigned category: "Criterion met"
- compound structure string: "CCOCc1nc2c(N)nc3ccsc3c2n1Cc1ccc(CNC2CC(F)(F)C2)cc1"
  assigned category: "Criterion met"
- compound structure string: "CCCCc1nc2c(N)nc3ccsc3c2n1Cc1cccc(CN2CCC(c3ccncc3)CC2)c1"
  assigned category: "Criterion not met"
- compound structure string: "CCCCc1nc2c(N)nc3ccsc3c2n1Cc1ccccc1CNCCCN1CCN(CCCN)CC1"
  assigned category: "Criterion not met"
- compound structure string: "CCCCc1nc2c(N)nc3ccsc3c2n1Cc1ccc(C[N+]23CCN(CC2)CC3)cc1"
  assigned category: "Criterion not met"
- compound structure string: "CCCCc1nc2c(N)nc3ccsc3c2n1Cc1ccc(CN2CCN(CCc3ccccn3)CC2)cc1"
  assigned category: "Criterion not met"
- compound structure string: "CCCCc1nc2c(N)nc3ccsc3c2n1CCCCCN1CCC(c2ccncc2)CC1"
  assigned category: "Criterion met"
- compound structure string: "CCCCc1nc2c(N)nc3ccsc3c2n1Cc1cccc(CO)c1"
  assigned category: "Criterion not met"
- compound structure string: "CCOCc1nc2c(N)nc3ccsc3c2n1Cc1ccc(CNCc2cc[nH]c2)cc1"
  assigned category: "Criterion met"
